We begin with pIC50 values for the protein given by its sequence, as collected from the published literature.
Protein target, amino acids: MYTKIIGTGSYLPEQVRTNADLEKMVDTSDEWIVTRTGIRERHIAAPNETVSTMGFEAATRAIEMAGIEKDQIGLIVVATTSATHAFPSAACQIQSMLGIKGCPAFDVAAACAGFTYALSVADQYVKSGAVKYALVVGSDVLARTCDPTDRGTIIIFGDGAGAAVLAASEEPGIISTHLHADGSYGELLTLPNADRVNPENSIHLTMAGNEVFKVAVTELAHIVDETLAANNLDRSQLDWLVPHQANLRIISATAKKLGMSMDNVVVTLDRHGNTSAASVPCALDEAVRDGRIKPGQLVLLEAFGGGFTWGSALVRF
Hey, just a heads up that pIC50 is the negative log base 10 of the concentration in molar.

Guide cases for pIC50, answers given:
MOLECULE: O=C(Nc1ccccc1)N(Cc1cc(Br)cc(Br)c1O)c1ccc(F)cc1
ASSAY VALUE: 4.14
--
MOLECULE: CCOC(=O)/C(=C/Nc1ccc(Br)cc1)c1ccc(OCc2ccccc2)cc1
ASSAY VALUE: 4.37
--
MOLECULE: Oc1ccc(Br)cc1/C=N/Nc1nc(-c2ccc(Cl)c(Cl)c2)cs1
ASSAY VALUE: 4.36
--
MOLECULE: COc1ccc(C2=NN(C(C)=O)C(c3ccccc3)C2)cc1 (centres undefined)
ASSAY VALUE: 4.33
--
MOLECULE: COc1ccc(C2=NN(C(C)=O)C(c3ccc(OC)cc3)C2)cc1 (centres undefined)
ASSAY VALUE: 4.71
--
MOLECULE: O=C(Nc1ccccc1)N(Cc1cc(Br)ccc1O)c1ccccc1Br
ASSAY VALUE: 4.25

Reported pIC50 for O=C(NCCC/N=C/c1cc(I)ccc1O)c1ccccc1O was 5.45

Reported pIC50 for O=C(NCC/N=C/c1cc(I)ccc1O)c1ccccc1O was 5.56

Reported pIC50 for O=C(NCCCC/N=C/c1cc(Cl)cc(Cl)c1O)c1ccccc1O was 5.11

Reported pIC50 for O=C(NCCC/N=C/c1cc(Br)ccc1O)c1ccccc1O was 6.06

* * *

# TGT: 3-oxoacyl-[acyl-carrier-protein] synthase 3 (Escherichia coli)
# Sequence (C3TDZ2 whole entry): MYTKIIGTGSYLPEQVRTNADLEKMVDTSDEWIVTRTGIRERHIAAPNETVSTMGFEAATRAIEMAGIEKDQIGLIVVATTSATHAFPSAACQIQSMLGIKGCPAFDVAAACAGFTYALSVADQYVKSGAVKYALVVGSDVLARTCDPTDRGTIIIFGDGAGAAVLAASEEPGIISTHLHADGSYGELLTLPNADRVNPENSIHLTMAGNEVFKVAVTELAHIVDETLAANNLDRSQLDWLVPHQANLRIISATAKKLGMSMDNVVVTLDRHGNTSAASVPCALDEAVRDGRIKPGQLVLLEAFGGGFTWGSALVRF
We begin with IC50 values for 3-oxoacyl-[acyl-carrier-protein] synthase 3 (Escherichia coli), as collected from the published literature.
Simple rule here: IC50 less than 30 µM is satisfied, otherwise not satisfied.

Solved cases (8 shown):
COMPOUND: O=C(NCCCCCCNC(=O)c1ccccc1O)c1ccccc1O
TGT: 3-oxoacyl-[acyl-carrier-protein] synthase 3 (Escherichia coli)
CATEGORY: not satisfied
//
COMPOUND: Oc1c(Cl)cc(Cl)cc1/C=N/Nc1nc(-c2ccc(Cl)cc2)cs1
TGT: 3-oxoacyl-[acyl-carrier-protein] synthase 3 (Escherichia coli)
CATEGORY: not satisfied
//
COMPOUND: O=C(NCCCCCC/N=C/c1ccccc1O)c1ccccc1O
TGT: 3-oxoacyl-[acyl-carrier-protein] synthase 3 (Escherichia coli)
CATEGORY: not satisfied
//
COMPOUND: Oc1c(Cl)cc(Cl)cc1/C=N/Nc1nc(-c2ccc(Cl)c(Cl)c2)cs1
TGT: 3-oxoacyl-[acyl-carrier-protein] synthase 3 (Escherichia coli)
CATEGORY: satisfied
//
COMPOUND: NC[C@H]1O[C@H](O[C@H]2[C@H](O)[C@@H](O[C@H]3O[C@H](CO)[C@@H](O)[C@H](N)[C@H]3O)[C@H](N)C[C@@H]2N)[C@H](N)[C@@H](O)[C@@H]1O
TGT: 3-oxoacyl-[acyl-carrier-protein] synthase 3 (Escherichia coli)
CATEGORY: satisfied
//
COMPOUND: Cc1ncc([N+](=O)[O-])n1CC(C)OC(=O)/C=C/c1ccccc1Br (centres undefined)
TGT: 3-oxoacyl-[acyl-carrier-protein] synthase 3 (Escherichia coli)
CATEGORY: not satisfied
//
COMPOUND: Oc1ccccc1/C=N/CCCCCC/N=C/c1ccccc1O
TGT: 3-oxoacyl-[acyl-carrier-protein] synthase 3 (Escherichia coli)
CATEGORY: not satisfied
//
COMPOUND: CCOC(=O)/C(=C/Nc1ccc(C(C)C)cc1)c1ccc(OCc2ccccc2)cc1
TGT: 3-oxoacyl-[acyl-carrier-protein] synthase 3 (Escherichia coli)
CATEGORY: satisfied

Problem: Here's an entry: O=C(NCC/N=C/c1ccccc1O)c1ccccc1O . Is its IC50 below 30 µM?
Solution: satisfied

Problem: Here's an entry: Nc1ccn([C@H]2CC[C@@H](COP(=O)(O)O)O2)c(=O)n1 . Is its IC50 below 30 µM?
Solution: satisfied

Problem: Here's an entry: COc1ccc(C2=NN(C(C)=O)C(c3ccc(F)cc3)C2)cc1 (centres undefined) . Is its IC50 below 30 µM?
Solution: satisfied

Problem: Here's an entry: CCOC(=O)/C(=C\Nc1ccc(Br)cc1Br)c1ccc(OCc2ccccc2)cc1 . Is its IC50 below 30 µM?
Solution: satisfied

Problem: Here's an entry: CCOC(=O)/C(=C\Nc1ccc(Br)cc1)c1ccc(OCc2ccccc2)cc1 . Is its IC50 below 30 µM?
Solution: satisfied

Problem: Here's an entry: O=C(Nc1ccccc1)N(Cc1cc(Br)cc(Br)c1O)c1ccccc1Cl . Is its IC50 below 30 µM?
Solution: not satisfied

Problem: Here's an entry: O=C(NCCCCCC/N=C/c1cc(Cl)cc(Cl)c1O)c1ccccc1O . Is its IC50 below 30 µM?
Solution: not satisfied

Problem: Here's an entry: O=C(NCCCC/N=C/c1cc(Br)cc(Br)c1O)c1ccccc1O . Is its IC50 below 30 µM?
Solution: satisfied

Problem: Here's an entry: CCOC(=O)/C(=C\Nc1ccccc1Cl)c1ccc(OCc2ccccc2)cc1 . Is its IC50 below 30 µM?
Solution: satisfied

Problem: Here's an entry: O=C(NCC/N=C/c1cc(Cl)ccc1O)c1ccccc1O . Is its IC50 below 30 µM?
Solution: satisfied

Problem: Here's an entry: O=C(NCCCC/N=C/c1cc(Br)ccc1O)c1ccccc1O . Is its IC50 below 30 µM?
Solution: satisfied

Problem: Here's an entry: Cc1ncc([N+](=O)[O-])n1CC(C)OC(=O)/C=C/c1ccc(Br)cc1 (centres undefined) . Is its IC50 below 30 µM?
Solution: satisfied

Problem: Here's an entry: Oc1c(Br)cc(Br)cc1/C=N/Nc1nc(-c2ccc(Cl)c(Cl)c2)cs1 . Is its IC50 below 30 µM?
Solution: satisfied

Problem: Here's an entry: O=C(NCCC/N=C/c1ccccc1O)c1ccccc1O . Is its IC50 below 30 µM?
Solution: not satisfied

Problem: Here's an entry: O=C(NCCCCCC/N=C/c1c(O)ccc2ccccc12)c1ccccc1O . Is its IC50 below 30 µM?
Solution: not satisfied

Problem: Here's an entry: COc1ccc(C2=NN(C(C)=O)C(c3ccccc3Cl)C2)cc1 (centres undefined) . Is its IC50 below 30 µM?
Solution: not satisfied

Problem: Here's an entry: O=C(NCCC/N=C/c1cc(Br)cc(Br)c1O)c1ccccc1O . Is its IC50 below 30 µM?
Solution: satisfied
